Tested on: Plasmodium falciparum
Assay: Antiprotozoal activity against erythrocytic stage of Plasmodium falciparum K1 after 48 hrs by [3H]- hypoxanthine incorporation assay
Format: functional, organism-based
pIC50: −log10 of the molar value.
recorded.endpoint: pIC50

Check out these entries, answers already filled in.
compound	study.target	pIC50
Clc1ccc(-c2c[nH]cc2[C@H](c2ccc(Cl)cc2Cl)n2ccnc2)cc1	Plasmodium falciparum	7.04
Clc1ccc(C(c2c[nH]cc2-c2ccc3ccccc3c2)n2ccnc2)c(Cl)c1 (centres undefined)	Plasmodium falciparum	6.47

[a] Clc1ccc(C(c2c[nH]cc2-c2ccc(Cl)cc2-c2cccs2)n2ccnc2)c(Cl)c1 (centres undefined)
[b] Clc1ccc(-c2cc(C(c3ccc(Cl)cc3)n3ccnc3)c[nH]2)cc1 (centres undefined)
[ask] Identify the entry with the larger pIC50. Options: a and b Reply briefly: the label of your chosen item.
[reply] a

###

Measured selectivity ratio, listed per entry.
Assay: Selectivity index, ratio of CC50 for rat L6 cels to IC50 for Leishmania donovani MHOM/ET/67/L82 axenic amastigote
Assay type: toxicity
Settings: L6 cells, read-out: Ratio IC50
// no unit, no text: just the number

[ask] Entry under review: COc1ccc(-c2c[nH]cc2C(c2ccc(Cl)cc2Cl)n2ccnc2)cc1 (stereo not given) . Reported selectivity ratio?
[reply] 3

[ask] Would you mind doing CS(=O)(=O)c1ccc(-c2c[nH]cc2C(c2ccc(Cl)cc2Cl)n2ccnc2)cc1 (stereo not given) as well?
[reply] 7

[ask] Would you mind doing Clc1ccc(C(c2c[nH]cc2-c2ccc(Cl)cc2-c2ccccc2)n2ccnc2)c(Cl)c1 (stereo not given) as well?
[reply] 1

[ask] Would you mind doing C=CCn1cc(C(c2ccc(Cl)cc2)n2ccnc2)cc1-c1ccc(Cl)cc1 (stereo not given) as well?
[reply] 4

[ask] Would you mind doing CCCCCCCCCCCCCCCCOP(=O)([O-])OCC[N+](C)(C)C as well?
[reply] 245

###

Biological target: Cytochrome P450 3A4 (Homo sapiens, UniProt P08684)
Sequence (P08684 whole entry): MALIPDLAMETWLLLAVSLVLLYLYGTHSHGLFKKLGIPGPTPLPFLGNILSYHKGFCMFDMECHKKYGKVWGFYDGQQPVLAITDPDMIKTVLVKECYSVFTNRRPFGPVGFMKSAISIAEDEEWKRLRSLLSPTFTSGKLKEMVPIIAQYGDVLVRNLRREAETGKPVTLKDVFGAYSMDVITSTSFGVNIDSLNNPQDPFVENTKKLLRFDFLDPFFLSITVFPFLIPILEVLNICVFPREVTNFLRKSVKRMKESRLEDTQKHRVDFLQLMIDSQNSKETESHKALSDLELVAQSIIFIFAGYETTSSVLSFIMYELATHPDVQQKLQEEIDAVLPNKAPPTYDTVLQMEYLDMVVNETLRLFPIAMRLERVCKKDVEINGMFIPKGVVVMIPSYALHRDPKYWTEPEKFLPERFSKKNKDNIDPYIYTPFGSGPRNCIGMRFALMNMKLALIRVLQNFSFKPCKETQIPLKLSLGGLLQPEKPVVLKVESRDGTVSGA
Experiment: Inhibition of human CYP3A4 in presence of NADPH by luciferase reporter gene assay
pIC50: −log10 of the molar value.
recorded.endpoint: pIC50

compound	data.value
Cn1cc(C(c2ccc(Cl)cc2)n2ccnc2)cc1-c1ccc(Cl)cc1 (centres undefined)	5.96
C=CCn1cc(C(c2ccc(Cl)cc2)n2ccnc2)cc1-c1ccc(Cl)cc1 (centres undefined)	6.05

[a] Clc1ccc(-c2c[nH]cc2C(c2ccc(Cl)cc2Cl)n2ccnc2)cc1 (racemic)
[b] Clc1ccc(-c2cc(C(c3ccc(Cl)cc3)n3ccnc3)c[nH]2)cc1 (centres undefined)
[ask] Identify the entry with the larger pIC50. Options: a and b Reply briefly: the label of your chosen item.
[reply] a

###

Tested on: Plasmodium falciparum
Test: Antiprotozoal activity against erythrocytic stage of Plasmodium falciparum K1 after 48 hrs by [3H]- hypoxanthine incorporation assay
Assay type: functional, organism-based
recorded.endpoint: IC50 (nM)

[a] COc1ccc(-c2c[nH]cc2C(c2ccc(Cl)cc2Cl)n2ccnc2)cc1 (stereo not given)
[b] N#Cc1ccc(C(c2ccn(-c3ccc(Cl)cc3)c2)n2ccnc2)cc1 (stereo not given)
[ask] Identify the entry with the larger IC50. Options: a and b Reply briefly: the label of your chosen item.
[reply] b

[A] Clc1ccc(C(c2c[nH]cc2-c2ccc(Cl)cc2-c2ccccc2)n2ccnc2)c(Cl)c1 (stereo not given)
[B] Clc1ccc(C(c2c[nH]cc2-c2ccc(Cl)cc2-c2ccccc2)n2ccnc2)cc1 (stereo not given)
[ask] Dear colleague, could you let me know whether A or B has the lower recorded IC50? Thanks. Reply briefly: the label of your chosen item.
[reply] B

[P] N#Cc1ccc(C(c2ccn(-c3ccc(C#N)cc3)c2)n2ccnc2)cc1 (stereo not given)
[Q] Clc1ccc(C(c2c[nH]cc2-c2ccc(Cl)c3ccccc23)n2ccnc2)c(Cl)c1 (stereo not given)
[R] CS(=O)(=O)c1ccc(-c2c[nH]cc2C(c2ccc(Cl)cc2Cl)n2ccnc2)cc1 (stereo not given)
[ask] Put the items in sequence by IC50, from largest down. To answer, arrange all of the labels according to the requested order.
[reply] P, R, Q
